tested.system: human recombinant mGluR5 (Homo sapiens)
Sequence (P41594 21-1212): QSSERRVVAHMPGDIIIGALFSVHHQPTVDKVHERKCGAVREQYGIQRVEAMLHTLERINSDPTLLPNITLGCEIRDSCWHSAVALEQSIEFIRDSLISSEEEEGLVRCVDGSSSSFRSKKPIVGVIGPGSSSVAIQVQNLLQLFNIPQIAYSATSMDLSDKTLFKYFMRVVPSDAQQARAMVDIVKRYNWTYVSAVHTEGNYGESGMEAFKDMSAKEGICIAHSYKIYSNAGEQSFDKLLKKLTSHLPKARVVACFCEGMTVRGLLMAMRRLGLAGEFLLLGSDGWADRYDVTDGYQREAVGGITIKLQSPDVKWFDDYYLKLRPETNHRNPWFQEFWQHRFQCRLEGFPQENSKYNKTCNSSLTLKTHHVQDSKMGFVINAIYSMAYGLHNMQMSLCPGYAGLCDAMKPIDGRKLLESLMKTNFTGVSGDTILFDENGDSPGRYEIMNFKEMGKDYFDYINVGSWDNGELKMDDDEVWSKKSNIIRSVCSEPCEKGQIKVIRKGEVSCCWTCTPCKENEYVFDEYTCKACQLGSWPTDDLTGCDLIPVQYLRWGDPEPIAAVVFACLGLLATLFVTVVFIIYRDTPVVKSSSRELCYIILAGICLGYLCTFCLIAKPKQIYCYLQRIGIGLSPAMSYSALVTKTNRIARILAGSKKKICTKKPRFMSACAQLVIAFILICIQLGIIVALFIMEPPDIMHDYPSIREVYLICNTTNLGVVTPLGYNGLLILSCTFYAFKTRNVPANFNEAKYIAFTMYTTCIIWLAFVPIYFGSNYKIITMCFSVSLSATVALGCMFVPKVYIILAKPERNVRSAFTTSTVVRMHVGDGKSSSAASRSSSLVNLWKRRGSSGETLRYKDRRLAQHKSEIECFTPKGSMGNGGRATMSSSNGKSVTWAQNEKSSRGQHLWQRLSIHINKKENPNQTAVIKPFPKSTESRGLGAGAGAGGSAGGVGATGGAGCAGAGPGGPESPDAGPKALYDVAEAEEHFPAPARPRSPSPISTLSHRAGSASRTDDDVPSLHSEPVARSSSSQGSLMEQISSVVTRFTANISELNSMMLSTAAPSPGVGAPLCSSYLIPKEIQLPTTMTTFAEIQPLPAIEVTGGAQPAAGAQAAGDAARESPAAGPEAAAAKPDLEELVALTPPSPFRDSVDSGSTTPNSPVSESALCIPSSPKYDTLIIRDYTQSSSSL
protocol.details: positive modulation of mGluR5, calcium based FLIPR assay
setup.conditions: HEK 293 cell line expressing human recombinant mGluR5; EC50 of the modulation from peak Ca fluorescence signal after glutamate at approx. 5% basal stimulation
metric: EC50 (nM)

molecule: Cc1nc2c(o1)CN(C(=O)Cn1nc(-c3cc(C)c(F)cn3)cc1-c1ccccc1)C2
EC50, nM: 111
--
molecule: CCc1cc(-c2ccc(C)c(F)c2)nn1CC(=O)N1Cc2nc(C)oc2C1
EC50, nM: 236
--
molecule: Cc1csc(N2CCN(C(=O)Cn3nc(-c4ccc(F)c(C)c4)cc3-c3ccccc3)CC2)n1 [Example 7.02.158]
EC50, nM: 116
--
molecule: COc1ccccc1N1CCN(C(=O)Cn2nc(-c3ccccc3)cc2-c2ccccc2)CC1=O
EC50, nM: 1970
--
molecule: Cc1nnc(C2CCN(C(=O)Cn3nc(-c4ccc(C)c(C)c4)cc3-c3ccccc3)CC2)o1
EC50, nM: 42

[A] COc1cc(C2CCN(C(=O)Cn3nc(-c4ccc(F)c(C)c4)cc3-c3ccccc3)CC2)ncn1
[B] Cc1cc(-c2cc(-c3ccccc3)n(CC(=O)N3CCc4ncc(C)n4CC3)n2)ccc1F
Input pair: A , B . Output: entry with lower EC50. The response must carry the label of the picked entry.
A
